From: paper PMC12554172

B1: FLAG-tagged FBXO44 FBA domain (FBXO44^FBA) [human] / RGS2^5–16 peptide (RGS2 degron, Met^5–Met^16) [not stated] (parent complex)
chain 1: FYFLRSLHRNLLHNPCAEEGFEFWSLDVNGGDEWKVEDLSRDQRKEFPNDQVKKYFVTSYYTCLKSQVVDLKAEGYWEELMDTTRPDIEVKDWFAARPDCGSKYQLCVQLLSSAHAPLGTFQPDPATIQQKSDAKWREVSHTFSNYPPGVRYIWFQHGGVDTHYWAGWYGPRVTNSSITIGP
chain 2: MFLAVQHDCRPM

- Variants of: B1
- test_summary: peptide microarray (PEPperPRINT), α-FLAG fluorescence; three independent experiments with three technical replicates each; parent: 100; read off a plot
experimental_endpoint: percent of parent

Please review the entries below; each comes with its answer.
chain 2 MFLAVQHHCRPM [chain 2 D8H] :: ~130 % Parent
chain 2 MFLAVQHKCRPM [chain 2 D8K] :: ~220 % Parent
chain 2 MFLAVQHPCRPM [chain 2 D8P] :: ~160 % Parent
chain 2 MFLAVQHMCRPM [chain 2 D8M] :: ~140 % Parent
chain 2 MFLAVQHNCRPM [chain 2 D8N] :: ~150 % Parent
chain 2 MFLAVQHVCRPM [chain 2 D8V] :: ~140 % Parent
chain 2 MFLAVQHACRPM [chain 2 D8A] :: ~120 % Parent
chain 2 MFLAVQHGCRPM [chain 2 D8G] :: ~130 % Parent

Query (variant): chain 2 MFLAVQHQCRPM [chain 2 D8Q] ; field requested: percent of parent
~160 % Parent

Query (variant): chain 2 MFLAVQHLCRPM [chain 2 D8L] ; field requested: percent of parent
~130 % Parent

Query (variant): chain 2 MFLAVQHTCRPM [chain 2 D8T] ; field requested: percent of parent
~130 % Parent

Query (variant): chain 2 MFLAVQHCCRPM [chain 2 D8C] ; field requested: percent of parent
~140 % Parent

Query (variant): chain 2 MFLAVQHRCRPM [chain 2 D8R] ; field requested: percent of parent
~280 % Parent

Query (variant): chain 2 MFLAVQHWCRPM [chain 2 D8W] ; field requested: percent of parent
~150 % Parent

Query (variant): chain 2 MFLAVQHYCRPM [chain 2 D8Y] ; field requested: percent of parent
~130 % Parent

Query (variant): chain 2 MFLAVQHFCRPM [chain 2 D8F] ; field requested: percent of parent
~130 % Parent

Query (variant): chain 2 MFLAVQHSCRPM [chain 2 D8S] ; field requested: percent of parent
~160 % Parent

Query (variant): chain 2 MFLAVQHICRPM [chain 2 D8I] ; field requested: percent of parent
~140 % Parent

Query (variant): chain 2 MFLAVQHECRPM [chain 2 D8E] ; field requested: percent of parent
~100 % Parent
